Cited source for all entries: PubChem BioAssay AID504788

tested on: HMLE_shECad viability, CellTiter-Glo luminescence, 72 h; test: HMLE_shECad viability reduction – cell-based, CellTiter-Glo luminescence, dry powder, set 7, dose response (AID 504788)
Inconclusive results are not listed.
Each item that follows carries a reported AC50.

Some solved cases for reference:
molecule=COc1cc(C(C)C)ccc1/C=C/C(=O)NC1=NCCS1 obs_value="30.6 µM"
molecule=Cc1csc(NC(=O)c2ccc(COc3ccncc3)o2)n1 obs_value="20 µM"
molecule=O=C(/C=C/c1ccc(-c2ccccc2)nc1)NC1=NCCS1 obs_value="29 µM"

Request body: readout AC50, system HMLE_shECad viability, CellTiter-Glo luminescence, 72 h, query COc1cccc2c1C(=O)c1c(O)c3c(c(O)c1C2=O)C[C@@](O)(C(=O)CO)C[C@@H]3OC1C[C@H](N)[C@H](O)[C@H](C)O1 (stereo partly drawn) . Return the value. 0.053 µM

Kindly state the measured AC50 obtained for Cc1ccnc(NCc2cccc(C(=O)Nc3nc(C)cs3)c2)c1 with HMLE_shECad viability, CellTiter-Glo luminescence, 72 h. 17.7 µM

Form field: AC50 recorded for Cc1csc(NC(=O)c2cccc(COc3cccc(Cl)c3)c2)n1 with HMLE_shECad viability, CellTiter-Glo luminescence, 72 h (enter value) 1.11 µM

Fill in the recorded AC50 for this molecule, with HMLE_shECad viability, CellTiter-Glo luminescence, 72 h as test system: Cc1cccc(NCc2ccc(C(=O)Nc3nc(C)cs3)o2)n1 18 µM

Look up AC50 with HMLE_shECad viability, CellTiter-Glo luminescence, 72 h for this molecule: Cc1cccc(OCc2cccc(C(=O)Nc3nc(C)cs3)c2)c1 2.74 µM
